Test system: Ri-1 cells
Experiment: BTK (wt) cell proliferation, Ri-1 (CellTiter-Glo, 72 h);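 also: viable cells quantified as cellular ATP luminescence, proliferation normalized to a time-zero plate and the DMSO control, compounds tested across a dilution series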
Type: cell-based
Conditions: Ri-1, 72 h, Ri-1 cells, 72 h, CellTiter-Glo; read-out: BTK WT Ri-1 GI50
Where a name gives a salt, the structure may show the parent alone.
property: GI50

C=CC(=O)Nc1cc(Nc2nccc(Nc3cc(Cl)c(F)cc3C(C)(C)O)n2)c(OC)cc1N1CC[C@@H](CN(C)C)C1 ... 18.6 nM
C=CC(=O)Nc1cc(Nc2ncnc(Nc3cc(Cl)c(F)cc3C(C)(O)CC)n2)c(OC)cc1N1CCC[C@@H]1CN(C)C (stereo partly drawn) ... 14.9 nM
C=CC(=O)Nc1cc(Nc2nccc(Nc3cc(Cl)c(F)cc3C(C)(C)O)n2)c(OC)cc1N1C[C@@H]2CN(C)[C@@H]2C1 [Compound 97, formic acid salt] ... 54.7 nM
C=CC(=O)Nc1cc(Nc2nccc(Nc3cc(Cl)c(F)cc3C(C)(O)C(F)(F)F)n2)c(OC)cc1N1CC[C@@H](N(C)C)C1 (stereo partly drawn) ... 146 nM
C=CC(=O)Nc1cc(Nc2ncnc(Nc3cc(F)c(Cl)cc3C(C)(C)O)n2)c(OC)cc1N1CC[C@@H]2CN(C)C[C@@H]21 ... 4.92 nM
C=CC(=O)Nc1cc(Nc2ncnc(Nc3cccnc3C(C)(C)O)n2)c(OC)cc1N(C)CCN(C)C ... > 3000 nM
